# Tested on: arrhythmic heart-beats induced by ouabain
# assay notes: Effect against arrhythmic heart-beats induced by ouabain in anaesthetized dogs
# Format: in vivo
# condition parameters: ouabain, dose 1.0 mg/kg
Mark MET only when Number of regularized arrhythmias (percent) stays strictly below 60%. Values equal to the cut-off are NOT MET.

Strictly below 60% in Number of regularized arrhythmias (percent)? Cc1cccc(C)c1NC(=O)C1CCCCN1CCCO (stereo not drawn)
NOT MET

For Cc1cccc(C)c1NC(=O)C1CCCCN1C (stereo not drawn) [Mepivacaine, mepivacaine, reference compound] , is the recorded Number of regularized arrhythmias (percent) below the cut-off of 60%?
MET

Decide: Number of regularized arrhythmias (percent) of Cc1cccc(C)c1NC(=O)C1CCCCN1CCO (racemic) strictly below 60%?
NOT MET

Given Cc1cccc(C)c1NC(=O)[C@@H]1CCCN1CCO , is recorded Number of regularized arrhythmias (percent) strictly lower than 60%?
NOT MET

A record lists Cc1cccc(C)c1NC(=O)C1CCCC[N+]1(C)CCO (stereo not drawn) . Is its Number of regularized arrhythmias (percent) below 60%?
NOT MET

----------
# System: arrhythmic heart-beats induced by ouabain
# assay notes: Effect against arrhythmic heart-beats induced by ouabain in anaesthetized dogs
# Format: in vivo
# condition parameters: ouabain, dose 2.0 mg/kg
metric: Duration of regularization

Look up Duration of regularization of Cc1cccc(C)c1NC(=O)C1CCCCN1CCCO (stereo not drawn) and report it.
200 ± 40 min

Look up and state reported Duration of regularization for Cc1cccc(C)c1NC(=O)C1CCCC[N+]1(C)CCO (stereo not drawn)
310 ± 50 min

Give reported Duration of regularization value for Cc1cccc(C)c1NC(=O)C1CCCCN1C (stereo not drawn) [Mepivacaine, mepivacaine, reference compound]
185 ± 50 min

Tell me Duration of regularization reported for CCN(CC)CC(=O)Nc1c(C)cccc1C [Lidocaine, lidocaine, reference compound]
220 ± 30 min

Read off the recorded Duration of regularization for Cc1cccc(C)c1NC(=O)[C@@H]1CCCN1CCO
195 ± 40 min

Look up Duration of regularization of Cc1cccc(C)c1NC(=O)C1CCCCN1CCO (racemic) and report it.
280 ± 70 min

----------
Please go through the items and note down their TD50.
# assay notes: in vivo
# condition parameters: rat, iv
Kindly provide the numeric value in mg/kg only, without the unit symbol.

Name the recorded TD50 of the item Cc1cccc(C)c1NC(=O)C1CCCC[N+]1(C)CCO (centres unmarked) in your answer.
125

Identify measured TD50 corresponding to Cc1cccc(C)c1NC(=O)C1CCCCN1CCO (racemic)
103

Let me know recorded TD50 for Cc1cccc(C)c1NC(=O)C1CCCCN1C (centres unmarked) [Mepivacaine, mepivacaine, reference compound] , thanks.
38

# return recorded TD50 for entry Cc1cccc(C)c1NC(=O)[C@@H]1CCCN1CCO
130

In one line, give reported TD50 of the entry Cc1cccc(C)c1NC(=O)C1CCCCN1CCCO (centres unmarked) .
80

----------
# assay notes: in vivo
# condition parameters: mouse, iv
metric: LD50 (mg/kg)
Kindly provide the numeric value in mg/kg only, without the unit symbol.

Supply reported LD50 belonging to this compound: Cc1cccc(C)c1NC(=O)C1CCCCN1CCCO (stereo not shown)
40

Report LD50 for Cc1cccc(C)c1NC(=O)C1CCCC[N+]1(C)CCO (stereo not shown)
84

Quote LD50 reported for Cc1cccc(C)c1NC(=O)[C@@H]1CCCN1CCO please.
110

Report measured LD50; entry is Cc1cccc(C)c1NC(=O)C1CCCCN1C (stereo not shown) [Mepivacaine, mepivacaine, reference compound]
31
